Collected Duration values appear next to each entry.
assay: Duration of action is where maximum inhibition of LTB4 formation is achieved at 1 mg/kg po; assay type: functional, organism-based; design: dose 1 mg/kg; details: Canis lupus familiaris
Number in h, nothing else.

# annotated cases, reported Duration shown
INSERT INTO measurements (record_smiles, measured_number) VALUES
  ('NC(=O)N(O)CC1=Cc2cc(Oc3ccccc3)ccc2OC1', 14),
  ('C=CCNC(=O)N(O)CC1=Cc2cc(Oc3ccccc3)ccc2OC1', 4.2),
  ('CNC(=O)N(O)CC1=Cc2cc(Oc3ccc(F)cc3)ccc2OC1', 15),
  ('NC(=O)N(O)CC1=Cc2cc(OCc3ccccc3)ccc2OC1', 5);

Entry NC(=O)N(O)CC1=Cc2cc(Oc3ccc(F)cc3)ccc2OC1 , Duration reported as 13

---

Biological target: Polyunsaturated fatty acid 5-lipoxygenase (Homo sapiens)
Sequence (whole entry): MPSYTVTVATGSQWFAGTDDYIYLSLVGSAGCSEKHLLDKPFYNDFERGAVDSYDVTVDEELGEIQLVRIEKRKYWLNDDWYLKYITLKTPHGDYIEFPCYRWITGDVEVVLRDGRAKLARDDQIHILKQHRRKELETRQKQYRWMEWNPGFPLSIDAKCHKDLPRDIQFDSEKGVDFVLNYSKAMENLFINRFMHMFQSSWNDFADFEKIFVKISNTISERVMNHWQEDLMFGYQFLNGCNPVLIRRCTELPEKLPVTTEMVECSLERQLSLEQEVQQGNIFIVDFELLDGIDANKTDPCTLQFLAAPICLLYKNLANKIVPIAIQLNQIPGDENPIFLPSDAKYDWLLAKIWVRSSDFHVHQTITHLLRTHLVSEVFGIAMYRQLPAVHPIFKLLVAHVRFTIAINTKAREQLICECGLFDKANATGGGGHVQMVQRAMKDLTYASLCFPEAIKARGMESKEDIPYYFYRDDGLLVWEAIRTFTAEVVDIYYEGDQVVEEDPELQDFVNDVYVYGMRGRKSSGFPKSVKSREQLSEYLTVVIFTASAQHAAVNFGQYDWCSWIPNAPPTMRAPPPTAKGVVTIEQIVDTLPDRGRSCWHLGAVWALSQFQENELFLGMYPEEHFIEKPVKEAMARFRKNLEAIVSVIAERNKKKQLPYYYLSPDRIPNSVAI
Assay: Ex vivo inhibition of LTB-4 determined by measurement of A-23187-stimulated LTB-4 production in dog blood at 1 mg/kg iv
Type: functional, organism-based
Parameters: dose 1 mg/kg
observable: inhibition

Entry CCNC(=O)N(O)CC1=Cc2cc(Oc3ccccc3)ccc2OC1 , inhibition reported as > 95%

---

Biological target: Polyunsaturated fatty acid 5-lipoxygenase (Homo sapiens)
Sequence (whole entry): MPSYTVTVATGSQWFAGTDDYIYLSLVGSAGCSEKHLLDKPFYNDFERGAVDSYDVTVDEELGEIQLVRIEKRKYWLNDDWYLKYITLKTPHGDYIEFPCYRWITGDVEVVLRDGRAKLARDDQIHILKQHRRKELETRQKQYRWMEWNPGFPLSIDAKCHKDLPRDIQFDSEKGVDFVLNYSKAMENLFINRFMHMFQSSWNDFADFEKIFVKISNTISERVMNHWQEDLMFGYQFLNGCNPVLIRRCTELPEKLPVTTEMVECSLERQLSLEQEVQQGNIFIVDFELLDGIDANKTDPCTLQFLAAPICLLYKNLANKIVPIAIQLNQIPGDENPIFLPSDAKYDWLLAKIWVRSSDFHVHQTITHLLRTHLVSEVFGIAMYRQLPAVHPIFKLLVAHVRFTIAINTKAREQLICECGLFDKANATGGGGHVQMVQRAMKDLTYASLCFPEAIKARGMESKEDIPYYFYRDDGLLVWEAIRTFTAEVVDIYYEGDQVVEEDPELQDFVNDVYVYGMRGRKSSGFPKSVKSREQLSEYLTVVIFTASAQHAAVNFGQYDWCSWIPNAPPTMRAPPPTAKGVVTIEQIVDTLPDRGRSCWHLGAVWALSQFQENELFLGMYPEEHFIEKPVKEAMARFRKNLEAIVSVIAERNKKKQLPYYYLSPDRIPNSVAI
Assay: Ex vivo inhibition of LTB4 production by measurement of A-23187-stimulated LTB-4 production in dog blood at 1 mg/kg po.
Type: functional, organism-based
Design: dose 1 mg/kg
Conditions: Canis lupus familiaris, target entry is the homologue from another species
observable: inhibition

# annotated cases, reported inhibition shown
INSERT INTO results (record_smiles, result) VALUES
  ('CCNC(=O)N(O)CC1=Cc2cc(Oc3ccccc3)ccc2OC1', '60%'),
  ('CNC(=O)N(O)CC1=Cc2cc(Oc3ccc(F)cc3)ccc2OC1', '> 95%'),
  ('NC(=O)N(O)CC1=Cc2cc(OCCCc3ccccc3)ccc2OC1', '> 90%'),
  ('NC(=O)N(O)CC1=Cc2cc(Oc3ccc(F)cc3)ccc2OC1', '> 95%'),
  ('C=CCNC(=O)N(O)CC1=Cc2cc(Oc3ccccc3)ccc2OC1', '80%');

Entry CNC(=O)N(O)CC1=Cc2cc(Oc3ccccc3)ccc2OC1 , inhibition reported as > 95%

---

test: Duration of action where maximum inhibition of LTB4 formation is achieved at 3 mg/kg po; type: functional, organism-based; set-up: dose 3 mg/kg; details: Canis lupus familiaris
Collected Duration values appear next to each entry.
Number in h, nothing else.

INSERT INTO measurements (record_smiles, unit_descriptor, measured_number) VALUES
  ('CNC(=O)N(O)CC1=Cc2cc(Oc3ccc(F)cc3)ccc2OC1', 'h', 42),
  ('CCCCCCOc1ccc2c(c1)C=C(CN(O)C(N)=O)CO2', 'h', 2.2);

Let us move to another entry and its Duration.
Entry NC(=O)N(O)CC1=Cc2cc(Oc3ccccc3)ccc2OC1 , Duration reported as 35

---

Collected inhibition values appear next to each entry.
Molecular target: Polyunsaturated fatty acid 5-lipoxygenase (Homo sapiens)
Sequence (whole entry): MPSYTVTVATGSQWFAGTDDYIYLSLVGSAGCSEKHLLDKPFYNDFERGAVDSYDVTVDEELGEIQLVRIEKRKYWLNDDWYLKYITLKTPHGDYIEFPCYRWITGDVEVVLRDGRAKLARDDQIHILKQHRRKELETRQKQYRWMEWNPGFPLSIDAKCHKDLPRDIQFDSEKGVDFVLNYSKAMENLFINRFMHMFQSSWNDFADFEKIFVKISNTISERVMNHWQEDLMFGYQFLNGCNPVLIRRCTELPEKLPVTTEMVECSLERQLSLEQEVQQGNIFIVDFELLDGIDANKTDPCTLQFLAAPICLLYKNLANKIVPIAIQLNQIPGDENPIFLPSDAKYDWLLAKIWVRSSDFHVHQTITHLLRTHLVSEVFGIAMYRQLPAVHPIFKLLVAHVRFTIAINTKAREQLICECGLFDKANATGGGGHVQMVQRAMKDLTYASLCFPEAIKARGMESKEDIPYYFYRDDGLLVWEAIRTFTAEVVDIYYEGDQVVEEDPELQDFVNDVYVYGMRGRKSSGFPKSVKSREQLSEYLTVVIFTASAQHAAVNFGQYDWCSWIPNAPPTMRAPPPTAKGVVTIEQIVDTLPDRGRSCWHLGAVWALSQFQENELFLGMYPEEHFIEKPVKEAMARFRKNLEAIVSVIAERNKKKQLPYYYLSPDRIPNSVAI
Experiment: Ex vivo inhibition of LTB4 production by measurement of A-23187-stimulated LTB-4 production in dog blood at 1 mg/kg po.
Format: functional, organism-based
Set-up: dose 1 mg/kg
Settings: Canis lupus familiaris, target entry is the homologue from another species
Number in %, nothing else.

# annotated cases, reported inhibition shown
INSERT INTO assay_data (molecule, observable, measured_number) VALUES
  ('NC(=O)N(O)CC1=Cc2cc(OCc3ccccc3)ccc2OC1', 'inhibition', 59),
  ('CC1(C)Oc2ccc(Oc3ccccc3)cc2C=C1CN(O)C(N)=O', 'inhibition', 65),
  ('CC1Oc2ccc(OCc3ccccc3)cc2C=C1CN(O)C(N)=O (configuration not stated)', 'inhibition', 91);

Let us move to another entry and its inhibition.
Item NC(=O)N(O)CC1=Cc2cc(-c3ccccc3)ccc2OC1 was tested on Polyunsaturated fatty acid 5-lipoxygenase (Homo sapiens); the reported inhibition is 60

---

test: Duration of action where maximum inhibition of LTB4 formation is achieved at 1 mg/kg po; format: functional, organism-based; set-up: dose 1 mg/kg; conditions: Canis lupus familiaris
Returns fulfilled if the recorded Duration is greater than or equal to 4 h, and not fulfilled otherwise.

Some solved cases for reference:
INSERT INTO assay_data (molecule, label_class) VALUES
  ('CC1Oc2ccc(Oc3ccccc3)cc2C=C1CN(O)C(N)=O (stereo not drawn)', 'fulfilled'),
  ('NC(=O)N(O)CC1COc2ccc(Oc3ccccc3)cc2C1 (stereo not drawn)', 'fulfilled');

Asked: hey, is Duration for this one >= 4 h? CNC(=O)N(O)CC1=Cc2cc(Oc3ccccc3)ccc2OC1
Given back: fulfilled

Asked: hey, is Duration for this one >= 4 h? CC1(C)Oc2ccc(Oc3ccccc3)cc2C=C1CN(O)C(N)=O
Given back: not fulfilled

Asked: hey, is Duration for this one >= 4 h? NC(=O)N(O)CC1=Cc2cc(-c3ccccc3)ccc2OC1
Given back: not fulfilled

Asked: hey, is Duration for this one >= 4 h? CC1Oc2ccc(OCc3ccccc3)cc2C=C1CN(O)C(N)=O (stereo not drawn)
Given back: not fulfilled

Asked: hey, is Duration for this one >= 4 h? CCNC(=O)N(O)CC1=Cc2cc(Oc3ccccc3)ccc2OC1
Given back: not fulfilled
